Numbers sourced from ChEMBL document CHEMBL4325834.

Test: Hemolytic activity against human erythrocytes assessed as amount of hemoglobin released from lysed cells up to 150 uM relative to control
Assay type: ADME, cell-based, Erythrocyte
Settings: read-out: Activity
Measured endpoint: hemolysis (%)

substance=H-TRAFRCVS-OH assay_value=1
